- test_method_notes: BET inhibitor-based combinations targeting novel dependencies in MECOM-rearranged (r) AML: AML-191 cell line (AID 2202236; further: nearly all actives have a fitted effect of over 35% in size)
- test_context: AML-191 viability, CellTiter-Glo luminescence, 48 h; series mostly up to 46 µM
- Experimental: Ecotropic viral insertion site 1 (EVI1) is located on chromosome 3q26.2 as part of the MECOM (MDS and EVI1 complex) locus. […] A collection of 2480 mechanistically annotated dugs (MIPE v5.0) was used to screen four 3q26.2 rearranged AML cell lines and three non-3q26.2 rearranged AML cell lines. […] Cell viability was determined by luminescence based, Cell Titer Glo assay (Promega). […] Luminescence readings were taken using a Viewlux (PerkinElmer) with a 2 s exposure time per plate. […]
Results filed as inconclusive are left out. Activity calls are given as the source filed them. The call rests on the fitted dose curve; in most records, active means well fitted inhibition curve with a large enough effect; inconclusive means small, poorly fitted or top-dose-only effect; inactive means flat fitted curve, though single readings scatter.
Please answer using one outcome listed in T for active, F for inactive

Completed entries (count: 3):
- compound: "COc1cccc(-c2cc(=O)c3ccccc3o2)c1N"
  group: "T"
- compound: "COc1cc(/C=C(\\C#N)C(=O)Nc2nnc(C(F)(F)F)s2)ccc1OCc1ccc(C(F)(F)F)cc1C(F)(F)F"
  group: "F"
- compound: "CC1=C(/C=C/C(C)=C/C=C/C(C)=C\\C(=O)O)C(C)(C)CCC1"
  group: "T"

Incoming: Name the outcome recorded for Cc1ccc(NC(=O)c2cccc(N(C)C)c2)cc1NC(=O)c1ccc(O)cc1 in the assay.
Outgoing: F

Incoming: Could you do the same for CCCCC(CC)COC(=O)C(C#N)=C(c1ccccc1)c1ccccc1 (stereo unspecified) , please?
Outgoing: F

Incoming: One more compound: COc1cc(OC2CCN(C)CC2)ccc1Nc1ncc2c(n1)n(C1CCCC1)c(=O)n2C
Outgoing: T

* * *

- test_method_notes: BET inhibitor-based combinations targeting novel dependencies in MECOM-rearranged (r) AML: SET-2 cell line (AID 2202231); further: potency means the concentration at half of the fitted maximal effect; nearly all actives have a fitted effect of over 35% in size
- test_context: SET-2 AML cells viability, CellTiter-Glo luminescence, 48 h
Inconclusive results are not listed. Active and inactive are the calls of the source. The call rests on the fitted dose curve; in most records, active means well fitted inhibition curve with a large enough effect; inconclusive means small, poorly fitted or top-dose-only effect; inactive means no such curve, though single readings can be large or run the other way.
Please go through the items and note down their Potency.

The examples below pair each entry with its known result.
- item_smiles: "NC(=O)c1noc([C@H](CCCC2CCCCC2)CC(=O)NO)n1"
  Potency: "5.9 µM (active)"
- item_smiles: "CN[C@H]1CCc2cc(OC)c(OC)c(OC)c2-c2ccc(OC)c(=O)cc21"
  Potency: "0.186 µM (active)"

For every item below, please supply its Potency.
1. CN(C)C/C=C/C(=O)Nc1cccc(C(=O)Nc2cccc(Nc3ncc(Cl)c(-c4c[nH]c5ccccc45)n3)c2)c1
2. O=C(O)c1ccc(-n2nc(-c3ccccc3O)nc2-c2ccccc2O)cc1
3. COC(=O)Nc1nc2ccc(C(=O)c3ccc(F)cc3)cc2[nH]1
4. CN(C)C1CCN(C(=O)c2ccc(NC(=O)Nc3ccc(-c4nc(N5CCOCC5)nc(N5CCOCC5)n4)cc3)cc2)CC1
5. O=c1[nH]cc(F)c(=O)[nH]1

Outgoing:
["1.05 µM (active)", "20.9 µM (active)", "0.833 µM (active)", "4.68 µM (active)", "10.5 µM (active)"]

Incoming: Tell me the measured Potency of Fc1ccc(CNc2ncnc3ccc(F)cc23)cc1 , please.
Outgoing: 2.63 µM (active)

* * *

Can you tell me activation for the items I'm about to list?
- test_system: Cellular tumor antigen p53 (Homo sapiens)
- test_method_notes: Primary qHTS for small molecule compounds that upregulate eGFP-tagged delta133p53alpha (in N-terminal) cells. (AID 2060322);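 further: cells pre-induced with doxycycline then dosed without doxycycline; 0% = DMSO vehicle and 100% = reference activator; nearly all actives have a fitted effect of over 75% in size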
- test_context: NCI-H358 eGFP-delta133p53alpha fluorescence, 24 h; active compounds read high
Results filed as inconclusive are left out.
One number for each entry, in %.

As a guide, the following entries are already answered.
- compound: "COC(=O)C1=C[C@@H](O)[C@@H](O)[C@H](O[C@@H]2O[C@H](CO)[C@@H](O)[C@H](O)[C@H]2OC(=O)/C=C/c2ccccc2)C1"
  display_unit: "%"
  activation: -26
- compound: "C#CCN(Cc1cc2c(=O)[nH]c(C)nc2cc1Br)c1ccc(C(=O)NCc2cccnc2)cc1"
  display_unit: "%"
  activation: -5.73
- compound: "Cc1csc(-c2nnc(Nc3ccc(Oc4ncccc4-c4ccnc(N)n4)cc3)c3ccccc23)c1"
  display_unit: "%"
  activation: 19.6
- compound: "CC(C)=C1CC2[C@](C)(CC[C@@H](OC(=O)C3(C)OC3C)[C@@]2(C)O)CC1=O (stereo partly drawn)"
  display_unit: "%"
  activation: -20.6
- compound: "O=C(Nc1ncc(-c2cc(C(F)F)nn2-c2c(Cl)cccc2Cl)s1)C1CC1"
  display_unit: "%"
  activation: 7.16
- compound: "CC(NC(=O)CC(=O)O)C(=O)Nc1ccccc1C(N)=O (stereo not drawn)"
  display_unit: "%"
  activation: -3.05
- compound: "COc1ccc(-c2cc3c(C)nc(N)nc3n(C3CCC(OCCO)CC3)c2=O)cn1 (stereo not drawn)"
  display_unit: "%"
  activation: 3.45
- compound: "CCOC(=O)[C@H](CCc1ccccc1)N[C@@H](C)C(=O)N1CCCC1C(=O)O (stereo partly drawn)"
  display_unit: "%"
  activation: -2.61
- compound: "CC(C)(N)c1ncc(-c2ccc(OC(F)(F)F)cc2)[nH]1"
  display_unit: "%"
  activation: -2.86
- compound: "CC(C)C(=O)Nc1cccc(C2CN3CCSC3=N2)c1 (stereo not drawn)"
  display_unit: "%"
  activation: 6.69

// for each compound in input: emit activation
1. CN1C(=O)c2ccccc2C1=O
2. CC1CCC2(C(=O)OC3OC(CO)C(O)C(O)C3O)CCC3(C(=O)O)C(=CCC4C5(C)CCC(OC6OC(C)C(O)C(O)C6O)C(C)(C)C5CCC43C)C2C1C (stereo not drawn)
3. C=CC(C)(O)CC/C=C(/C)C(=O)OC1C(OC2OCC(OC3OC(CO)C(O)C(O)C3O)C(OC3OCC(O)C(OC4OC(C)C(O)C(O)C4O)C3O)C2O)COC(OC(=O)C23CCC(C)(C)CC2C2=CCC4C5(C)CCC(OC6OC(CO)C(OC7OC(CO)C(O)C(OC8OCC(O)C(O)C8O)C7O)C(O)C6O)C(C)(C)C5CCC4(C)C2(C)CC3O)C1O (stereo not drawn)

Outgoing:
7.53
-10.7
-12.2

* * *

Give measured activation for each item. Keep answers brief.
- test_system: Cellular tumor antigen p53 (Homo sapiens)
- test_method_notes: Primary qHTS for small molecule compounds that upregulate eGFP-tagged delta133p53alpha (in N-terminal) cells. (AID 2060322);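 further: cells pre-induced with doxycycline then dosed without doxycycline; 0% = DMSO vehicle and 100% = reference activator; nearly all actives have a fitted effect of over 75% in size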
- test_context: NCI-H358 eGFP-delta133p53alpha fluorescence, 24 h; active compounds read high
Records with an inconclusive call do not appear.
One number for each entry, in %.

Below, 8 compounds whose answers are already recorded.
- compound: "C[C@]1(O)CC[C@@H]2C(C(=O)O)=CO[C@@H](O[C@@H]3O[C@H](CO)[C@@H](O)[C@H](O)[C@H]3O)[C@@H]21"
  display_unit: "%"
  reported_measurement: -11.5
- compound: "CC(/C=C/c1cccc(Oc2ccc(F)cc2)c1)N(O)C(N)=O (configuration not stated)"
  display_unit: "%"
  reported_measurement: -36
- compound: "CC(C)(C)Oc1ccc(OCC2Cc3ccccc3CN2C(=O)c2cccc3ccccc23)cc1 (configuration not stated)"
  display_unit: "%"
  reported_measurement: -10.5
- compound: "OC[C@]1(O)OC[C@@H](O)[C@H](O)[C@@H]1O"
  display_unit: "%"
  reported_measurement: -16.7
- compound: "Cc1cc2c(cc1S(N)(=O)=O)S(=O)(=O)CCC2"
  display_unit: "%"
  reported_measurement: -27.6
- compound: "CC(C)N=C(N)/N=C(\\N)Nc1ccc(Cl)cc1"
  display_unit: "%"
  reported_measurement: 0.837
- compound: "NS(=O)(=O)c1ccc(Nc2nc(OCC3CCCCC3)c3[nH]cnc3n2)cc1"
  display_unit: "%"
  reported_measurement: -24.8
- compound: "CNC1CCC(N(Cc2cccc(-c3ccncc3)c2)C(=O)c2sc3c(F)ccc(F)c3c2Cl)CC1 (configuration not stated)"
  display_unit: "%"
  reported_measurement: 21.5

List reported activation for each of these compounds:
1. CC(=O)OC[C@]12[C@H](OC(C)=O)C(=O)[C@@H]3[C@@H](OC(C)=O)[C@@]14O[C@@]3(C)COC(=O)c1cccnc1[C@@H](C)[C@H](C)C(=O)O[C@@H]([C@H](OC(C)=O)[C@@H]2OC(C)=O)[C@]4(C)O
2. CC(C)=CCC/C(C)=C/CO[C@@H]1O[C@H](CO)[C@@H](O)[C@H](O)[C@H]1O
3. COc1cc(O)c([C@@H](CC(=O)N2CC(C)CC(C)C2)c2ccc3c(c2)OCO3)c(OC)c1 (some centres not stated)
4. NC(=O)c1cccc2[nH]c(-c3ccc([C@H]4CCCN4)cc3F)nc12

Outgoing:
-13.7
-4.46
28.3
28.6

I have 3 compounds here; please give me activation for each one.
1. CC(=O)OCC1OC(OC2COC(OC3COC(OC4C(OC5C(CO)OC(OC6CCC7(C)C(CCC8(C)C7CC=C7C9CC(C)(C)CCC9(C(=O)OC9OC(CO)C(O)C(O)C9OC9OCC(OC%10OCC(O)(CO)C%10O)C(O)C9O)C(O)CC78C)C6(C)C)C(O)C5O)OCC(O)C4O)C(O)C3O)C(O)C2O)C(OC(=O)/C=C/c2ccccc2)C(O)C1OC(C)=O (configuration not stated)
2. C[C@]12CCC[C@](C)(C(=O)O)C1[C@@H](O)[C@@H](O)C13CC(CCC12)C(CO)(O[C@@H]1O[C@H](CO)[C@@H](O)[C@H](O)[C@H]1O)C3 (some centres not stated)
3. Cc1ccc(C(=O)Nc2noc3ccccc23)cc1

Outgoing:
[11.5, -9.16, -1]

Consider the following items and state reported activation for each.
1. C=C(C(=O)O)[C@@H]1CC=C(CCC(C)=O)[C@@H](C)CC1
2. CC(C)/C=C1\NC(=O)C(C(C)C)n2c1nc1c(c2=O)C=CC=CO1 (configuration not stated)
3. Cc1ncc(Cl)cc1NCc1ccc(C(=O)NC(CC2CCCC2)C(=O)NC2CC2)s1 (configuration not stated)
4. CNc1nc(NCc2ccc(NS(C)(=O)=O)cc2Cl)cc(-c2ccccn2)n1
5. Cn1c(=O)c(F)c(Nc2ccc(I)cc2F)c2c(=O)n(CC(O)CO)cnc21 (configuration not stated)
6. O=C1Nc2ccc(I)cc2/C1=C/c1cc(Br)c(O)c(Br)c1
7. CC(=O)O[C@]1(C(C)=O)CC[C@H]2[C@@H]3C=C(C)C4=CC(=O)CC[C@]4(C)[C@@H]3CC[C@@]21C
8. Nc1ccc(-c2ccc3ncc4ccc(=O)n(-c5cccc(C(F)(F)F)c5)c4c3c2)cn1

Outgoing:
1. 8.93
2. -7.63
3. 3
4. 7.64
5. 14.3
6. -56.5
7. -16.9
8. 6.6

Answer for every listed entry: what is its activation? The entries follow.
1. C[C@](Cc1c[nH]c2ccccc12)(NC(=O)OC1C2CC3CC(C2)CC1C3)C(=O)NC[C@H](NC(=O)CCC(=O)O)c1ccccc1 (some centres not stated)
2. C[C@]12CC[C@@H]3c4ccc(O)cc4CC[C@H]3[C@@H]1CCC2=O
3. C[C@]12CC[C@@H]3c4ccc(O[C@@H]5O[C@H](C(=O)O)[C@@H](O)[C@H](O)[C@H]5O)cc4CC[C@H]3[C@@H]1CCC2=O
4. CC1(CO)CCCC2(C)C1C(OC(=O)c1ccccc1)CC1C(=O)OCC12O (configuration not stated)

Outgoing:
1. 8.58
2. 11.7
3. -7
4. -20.6
